Target: UniProt:P61586
Assay: Ras GTP binding domain inhibition assay (labeled-GTP competition, cell-free)
Parameters: made in house
Settings: with SOS, read-out: Rho-A + SOS: % inh.
Quick list: inhibition at 20 µM per entry.

compound="O=C(c1nc(O)c2scc(-c3ccccn3)c2n1)N1CCOCC1 [Compound 22]" tested_on=UniProt:P61586 val="1 to 25%"
compound="CO[C@H]1CC[C@@H](Nc2nc(-c3nccn3C)nc3sc(-c4ccn(C(C)C)n4)c(-c4ccccc4)c23)C1 [Compound 5]" tested_on=UniProt:P61586 val="51 to 75%"
compound="CO[C@H]1CC[C@@H](Nc2nc(-c3nccn3C)nc3sccc23)C1 (racemic) [Compound 10]" tested_on=UniProt:P61586 val="76 to 100%"
compound="CO[C@H]1C[C@H](CNc2nc(-c3nccn3C)nc3sc(-c4ccn(C(C)C)n4)c(C)c23)C1 [Compound 48]" tested_on=UniProt:P61586 val="76 to 100%"

Kindly review the next compound as well.
Input: Lab note: need inhibition at 20 µM for COCC1COCCN1c1nc(-c2nccn2C)nc2sc(-c3ccn(C(C)C)n3)c(C)c12 (racemic) [Compound 41] on UniProt:P61586, anyone have it?
Output: 76 to 100%

====

Molecular target: KRas wild type (Homo sapiens, UniProt P01116)
Assay: Ras GTP binding domain inhibition assay (labeled-GTP competition, cell-free)
Parameters: made in house
Settings: with SOS, read-out: KRas wild type + SOS: % inh.
QUANTITY_NAME: inhibition at 20 µM

// below: answered compounds
compound="COCCNC(=O)c1nc(O)c2scc(-c3ccccn3)c2n1 [Compound 21]" quantity_name="inhibition at 20 µM" val="1 to 25%"
compound="COCCNc1nc(-c2nccn2C)nc2sc(-c3ccn(C(C)C)n3)c(C)c12 [Compound 35]" quantity_name="inhibition at 20 µM" val="76 to 100%"
compound="CO[C@H]1CC[C@@H](Nc2nc(C(N)=O)nc3sc(-c4ccn(C(C)C)n4)cc23)C1 (racemic) [Compound 17]" quantity_name="inhibition at 20 µM" val="1 to 25%"

Input: Lab note: need inhibition at 20 µM for Cc1c(-c2ccn(C(C)C)n2)sc2nc(-c3nccn3C)nc(NCc3c[nH]cn3)c12 [Compound 59] on KRas wild type (Homo sapiens, UniProt P01116), anyone have it?
Output: 76 to 100%

Input: Lab note: need inhibition at 20 µM for Cc1c(-c2ccn(C(C)C)n2)sc2nc(-c3ccccn3)nc(N3CCC(COC(C)C)C3)c12 (stereo not shown) [Compound 72] on KRas wild type (Homo sapiens, UniProt P01116), anyone have it?
Output: 0%

Input: Lab note: need inhibition at 20 µM for Cc1cnc(-c2nc(O)c3scc(-c4ccccn4)c3n2)s1 [Compound 92] on KRas wild type (Homo sapiens, UniProt P01116), anyone have it?
Output: 51 to 75%

Input: Lab note: need inhibition at 20 µM for CCOCCn1ccnc1-c1nc(O)c2scc(-c3ccccn3)c2n1 [Compound 80] on KRas wild type (Homo sapiens, UniProt P01116), anyone have it?
Output: 51 to 75%

Input: Lab note: need inhibition at 20 µM for CO[C@H]1C[C@@H](CNc2nc(-c3nccn3C)nc3sc(-c4ccn(C(C)C)n4)c(C)c23)C1 [Compound 47] on KRas wild type (Homo sapiens, UniProt P01116), anyone have it?
Output: 76 to 100%

Input: Lab note: need inhibition at 20 µM for Oc1nc(-c2ccccn2)nc2c(-c3ncccc3F)csc12 [Compound 27] on KRas wild type (Homo sapiens, UniProt P01116), anyone have it?
Output: 76 to 100%

Input: Lab note: need inhibition at 20 µM for COC1CCCN(c2nc(-c3nccn3C)nc3sc(-c4ccn(C(C)C)n4)c(C)c23)C1 (racemic) [Compound 40] on KRas wild type (Homo sapiens, UniProt P01116), anyone have it?
Output: 76 to 100%

Input: Lab note: need inhibition at 20 µM for CO[C@H]1CC(Nc2nc(-c3nccn3C)nc3sc(-c4ccn(C(C)C)n4)c(C)c23)C[C@@H]1OC (racemic) [Compound 44] on KRas wild type (Homo sapiens, UniProt P01116), anyone have it?
Output: 76 to 100%

Input: Lab note: need inhibition at 20 µM for Cn1ccc(-c2nc(O)c3scc(-c4ccccn4)c3n2)n1 [Compound 90] on KRas wild type (Homo sapiens, UniProt P01116), anyone have it?
Output: 0%

Input: Lab note: need inhibition at 20 µM for COc1cccc(Nc2nc(-c3nccn3C)nc3sc(-c4ccn(C(C)C)n4)c(C)c23)n1.Cl [Compound 65, hydrochloride salt] on KRas wild type (Homo sapiens, UniProt P01116), anyone have it?
Output: 51 to 75%

Input: Lab note: need inhibition at 20 µM for CO[C@H]1C[C@@H](Nc2nc(-c3nccn3C)nc3sc(-c4ccn(C(C)C)n4)c(C)c23)C1 [Compound 96] on KRas wild type (Homo sapiens, UniProt P01116), anyone have it?
Output: 1 to 25%

Input: Lab note: need inhibition at 20 µM for CO[C@H]1CC[C@H](Nc2nc(-c3nccn3C)nc3sc(-c4ccn(C(C)C)n4)c(C)c23)CC1 [Compound 54] on KRas wild type (Homo sapiens, UniProt P01116), anyone have it?
Output: 76 to 100%

====

Molecular target: KRas G12C mutant (Homo sapiens, UniProt P01116, G12C)
Construct: made in house
Assay: Ras GTP binding domain inhibition assay (labeled-GTP competition, cell-free)
Details: without SOS, read-out: KRas G12C mutant: % inh.
QUANTITY_NAME: inhibition at 20 µM

compound="COCCn1ccnc1-c1nc(N[C@H]2C[C@@H](OC)C2)c2c(-c3ccccc3)c(-c3ccn(C)n3)sc2n1 [Compound 7]" val="76 to 100%"
compound="COCCCNc1nc(-c2nccn2C)nc2sc(-c3ccn(C(C)C)n3)c(C)c12 [Compound 36]" val="76 to 100%"
compound="COCCn1c(-c2nc(O)c3scc(-c4ccccn4)c3n2)nc2ccccc21 [Compound 87]" val="1 to 25%"
compound="COCCNc1nc(-c2nccn2C)nc2sc(-c3ccn(C(C)C)n3)c(C)c12 [Compound 35]" val="76 to 100%"
compound="CO[C@H]1C[C@H](CNc2nc(-c3nccn3C)nc3sc(-c4ccn(C(C)C)n4)c(C)c23)C1 [Compound 48]" val="51 to 75%"

Input: Endpoint output: inhibition at 20 µM of CO[C@H]1C[C@@H](CNc2nc(-c3nccn3C)nc3sc(-c4ccn(C(C)C)n4)c(C)c23)C1 [Compound 47] . Value?
Output: 51 to 75%

Input: Endpoint output: inhibition at 20 µM of NC(=O)c1nc(O)c2scc(-c3ccccn3)c2n1 [Compound 18] . Value?
Output: 26 to 50%

Input: Endpoint output: inhibition at 20 µM of Cc1c(-c2ccn(C(C)C)n2)sc2nc(-c3ccccn3)nc(N3CCC(COC(C)C)C3)c12 (centres unmarked) [Compound 72] . Value?
Output: 0%

====

Quick list: inhibition at 20 µM per entry.
Target: Rac-1 (Homo sapiens, UniProt P63000)
Assay: Ras GTP binding domain inhibition assay (labeled-GTP competition, cell-free)
Parameters: made in house
Conditions: without SOS, read-out: Rac-1: % inh.

// below: answered compounds
compound=COc1ccc2cnc(-c3nc(O)c4scc(-c5ccccn5)c4n3)n2c1 val="51 to 75%"
compound=Cc1c(-c2ccn(C(C)C)n2)sc2nc(-c3nccn3C)nc(NCCc3ncc[nH]3)c12 val="1 to 25%"
compound=CO[C@H]1C[C@H](CNc2nc(-c3nccn3C)nc3sc(-c4ccn(C(C)C)n4)c(C)c23)C1 val="26 to 50%"
compound="COCC1CCN(c2nc(-c3ccccn3)nc3sc(-c4ccn(C(C)C)n4)c(C)c23)C1 (racemic)" val=0%
compound=COc1ccnc(Nc2nc(-c3nccn3C)nc3sc(-c4ccn(C(C)C)n4)c(C)c23)n1 val="76 to 100%"

Kindly review the next compound as well.
Input: Endpoint output: inhibition at 20 µM of CO[C@H]1CC[C@@H](Nc2nc(-c3nccn3C)nc3sc(-c4cc[nH]n4)c(-c4ccccc4)c23)C1 (racemic) . Value?
Output: 0%

====

Target: KRas G12C mutant (Homo sapiens, UniProt P01116, G12C)
Construct: made in house
Assay: Ras GTP binding domain inhibition assay (labeled-GTP competition, cell-free)
Conditions: with SOS, read-out: KRas G12C mutant + SOS: % inh.
Quick list: inhibition at 20 µM per entry.

// below: answered compounds
compound="CO[C@H]1CC[C@@H](Nc2nc(C(N)=O)nc3sccc23)C1 (racemic)" val="1 to 25%"
compound=CO[C@H]1CN(c2nc(-c3nccn3C)nc3sc(-c4ccn(C(C)C)n4)c(C)c23)C[C@H]1OC val="51 to 75%"
compound=CO[C@@H]1CC[C@H](Nc2nc(-c3nccn3C)nc3sc(-c4ccn(C(C)C)n4)c(C)c23)C1 val="76 to 100%"
compound=CO[C@H]1C[C@@H](CNc2nc(-c3nccn3C)nc3sc(-c4ccn(C(C)C)n4)c(C)c23)C1 val="76 to 100%"
compound=COc1cc(Nc2nc(-c3nccn3C)nc3sc(-c4ccn(C(C)C)n4)c(C)c23)ccn1 val="51 to 75%"
compound=NC(=O)c1nc(O)c2scc(-c3ccccn3)c2n1 val="26 to 50%"

Input: Endpoint output: inhibition at 20 µM of COC1CCCN(c2nc(-c3nccn3C)nc3sc(-c4ccn(C(C)C)n4)c(-c4ccccc4)c23)C1 (racemic) . Value?
Output: 0%
